target-or-system: CDK2/cyclin A (as used in the binding assay) (UniProt P24941 1-298; P20248 1-432)
Non-standard residues stand in square brackets, D forms with d. No end group written: not given here. Cha = N[C@@H](CC1CCCCC1)C(=O)O
measurement-kind: pIC50
Please treat pIC50 as minus the base-10 logarithm of the molar concentration.

Use the examples below as a reference point.
| binder | measurement-kind | measured-result |
| --- | --- | --- |
| SAKRRLXG (HELM PEPTIDE1{S.A.K.R.R.L.[O=C([C@H](Cc1ccsc1)N[*:1])[*:2]].G}$$$$V2.0; N-terminus assumed; SMILES CC(C)C[C@H](NC(=O)[C@H](CCCNC(=N)N)NC(=O)[C@H](CCCNC(=N)N)NC(=O)[C@H](CCCCN)NC(=O)[C@H](C)NC(=O)[C@@H](N)CO)C(=O)N[C@@H](Cc1ccsc1)C(=O)NCC(=O)O, C-terminal free acid (-OH); also called SCCP 5814) [SAKRRL3TA G-OH] | pIC50 | 6.37 |
| SAKRRLAG (HELM PEPTIDE1{S.A.K.R.R.[CC(C)C[C@@H](CC(=O)[*:2])N[*:1]].[O=C([C@H](Cc1ccsc1)N[*:1])[*:2]].G}$$$$V2.0; N-terminus assumed; SMILES CC(C)C[C@@H](CC(=O)N[C@@H](Cc1ccsc1)C(=O)NCC(=O)O)NC(=O)[C@H](CCCNC(=N)N)NC(=O)[C@H](CCCNC(=N)N)NC(=O)[C@H](CCCCN)NC(=O)[C@H](C)NC(=O)[C@@H](N)CO, C-terminal free acid (-OH); also called SCCP 5813) [SAKRR{bLeu}3TAG-OH] | pIC50 | 6.51 |
| HAKRRLI[Cha]-NH2 (not fully specified, also called HAKRRLIX6; HAKRRLI{CHA}) [HAKRRLIR6] | pIC50 | 6.60 |

Now turn to the next binder.
pIC50 for RKLIF (dimethyllysine at position 2 (lysine with the epsilon amino group methylated), also called SCCP 5918) [R(dimethyllys)LIF] ? 5.27
